- Tgt: UniProtKB P28074
Where a name gives a salt, the structure may show the parent alone.
Measured Quantity: IC50

COc1ccc2occ(C[C@H](NC(C)=O)B(O)O)c2c1; > 5000 nM
CCc1cccc(C[C@H](NC(=O)CCn2cc(-c3ccc(OC)cc3)nn2)B(O)O)c1; 50 to 500 nM
O=C(CCn1cnc2ccccc21)N[C@@H](Cc1ccc2ccccc2c1)B(O)O; < 50 nM
COc1ccc(-n2cc(CCC(=O)N[C@@H](Cc3ccc4ccccc4c3)B(O)O)nn2)cc1; 50 to 500 nM
O=C(CCN1CCNCC1)N[C@@H](Cc1coc2ccccc12)B(O)O [Example 92, hydrochloride]; 50 to 500 nM

Prompt: // lookup IC50 | system=UniProtKB P28074 | key= `O=C(CCn1cnc2ccccc21)N[C@@H](Cc1cccc(OC(F)(F)F)c1)B(O)O`
Response: 50 to 500 nM

Prompt: Please do the same for `COc1ccc(C(=O)CCC(=O)N[C@@H](Cc2cccc(OC(F)(F)F)c2)B(O)O)cc1` as well.
Response: 500 to 5000 nM

Prompt: Please do the same for `O=C(CCn1cc(-c2ccccc2)nn1)N[C@@H](Cc1ccc2c(c1)OCO2)B(O)O` as well.
Response: < 50 nM

----------
- Tgt: LMP7 (purified human immuno proteasome) (Homo sapiens)
- Measurement Notes: Determination of LMP7 activity (fluorescence intensity assay, Suc-LLVY-AMC)
- Format: biochemical
- Condition Notes: purified human immuno proteasome 0.5 nM, 40 μM Suc-LLVY-AMC, 37° C.
- Description: Measurement of LMP7 inhibition is performed in 384 well format based on fluorescence intensity assay. Purified human immuno proteasome (0.5 nM) and serial diluted compounds in DMSO (range of concentrations from 10 μM to 38 pM) or controls (0.5% DMSO) are incubated for 30 minutes at 37° C. in assay buffer containing 50 mM Tris pH 7.4 and 0.03% SDS. The reaction is initiated by the addition of the fluorogenic peptide substrate, Suc-LLVY-AMC (Bachem I-1395), at a concentration of 40 μM. […]
Measured Quantity: IC50

Completed entries (count: 3):
COc1ccc(C(=O)CCC(=O)N[C@@H](Cc2cccc(OC(F)(F)F)c2)B(O)O)cc1 [Example 48]; 50 to 500 nM
COc1ccc2occ(C[C@H](NC(=O)CCn3c(=O)sc4ccccc43)B(O)O)c2c1 [Example 109]; < 50 nM
CCc1cccc(C[C@H](NC(=O)CCc2cn(-c3ccccc3)nn2)B(O)O)c1 [Example 58]; 50 to 500 nM

Prompt: State the recorded IC50 for this entry: COc1ccc(C(=O)CCC(=O)N[C@@H](Cc2cccc(C(F)(F)F)c2)B(O)O)cc1 [Example 26]
Response: 50 to 500 nM

----------
Please consider the recorded IC50 for Beta5 (purified human constitutive proteasome) (Homo sapiens, UniProt P28074) in what follows.

Completed entries (count: 10):
CCc1cccc(C[C@H](NC(=O)CCC(=O)c2ccc(-c3ccccc3)cc2)B(O)O)c1 [Example 17]; 500 to 5000 nM
COc1cc(F)cc(C[C@H](NC(=O)CCn2cc(-c3ccccc3)nn2)B(O)O)c1 [Example 65]; 50 to 500 nM
CCc1cccc(C[C@H](NC(=O)CCC(=O)c2cccc(-c3ccccc3)c2)B(O)O)c1 [Example 19]; 500 to 5000 nM
CCc1cccc(C[C@H](NC(=O)CCC(=O)c2ccc3ccccc3c2)B(O)O)c1 [Example 18]; 500 to 5000 nM
O=C(CCn1cnc2ccccc21)N[C@@H](Cc1cccc(C(F)(F)F)c1)B(O)O [Example 38]; 50 to 500 nM
CCc1cccc(C[C@H](NC(=O)CCC(=O)c2ccccc2OC)B(O)O)c1 [Example 8]; > 5000 nM
CCc1cccc(C[C@H](NC(=O)[C@H](CC(=O)c2ccccc2)c2ccc(Cl)cc2)B(O)O)c1 (single isomer, unassigned) [Example 15]; > 5000 nM
O=C(CCc1ccccc1)N[C@@H](Cc1coc2ccccc12)B(O)O [Example 94]; < 50 nM
O=C(CCc1noc(-c2ccccc2)n1)N[C@@H](Cc1ccsc1)B(O)O [Example 37]; 500 to 5000 nM
O=C(CCC(=O)c1ccc2ccccc2c1)N[C@@H](Cc1ccsc1)B(O)O [Example 21]; 500 to 5000 nM

Prompt: State the recorded IC50 for this entry: CN(CC(=O)N[C@@H](Cc1coc2ccccc12)B(O)O)S(C)(=O)=O [Example 91]
Response: 50 to 500 nM

Prompt: Please do the same for COc1ccc(C(=O)CCC(=O)N[C@@H](Cc2ccc(F)c(C(F)(F)F)c2)B(O)O)cc1 [Example 50] as well.
Response: > 5000 nM

Prompt: Please do the same for CCc1cccc(C[C@H](NC(=O)CCc2noc(-c3ccccc3)n2)B(O)O)c1 [Example 36] as well.
Response: 500 to 5000 nM

----------
- Tgt: LMP7 (purified human immuno proteasome) (Homo sapiens)
- Measurement Notes: Determination of LMP7 activity (fluorescence intensity assay, Suc-LLVY-AMC)
- Format: biochemical
- Condition Notes: purified human immuno proteasome 0.5 nM, 40 μM Suc-LLVY-AMC, 37° C.
pIC50: −log10 of the molar value.
The compounds listed here are annotated with their pIC50.

Completed entries (count: 4):
COc1ccc(-n2cc(CCC(=O)N[C@@H](Cc3ccc4ccccc4c3)B(O)O)nn2)cc1; > 7.30
CCOc1cccc(CC(NC(=O)CCn2cc(-c3ccccc3)nn2)B(O)O)c1 (centres unmarked); > 7.30
O=C(CCn1cc(-c2ccccc2)nn1)N[C@@H](Cc1ccsc1)B(O)O; > 7.30
COc1ccc(C(=O)CCC(=O)N[C@@H](Cc2ccc(F)c(C(F)(F)F)c2)B(O)O)cc1; 6.30 to 7.30

Prompt: State the recorded pIC50 for this entry: O=C(N[C@@H](Cc1ccsc1)B(O)O)[C@H]1CCCC[C@@H]1C(=O)c1ccccc1 (racemic)
Response: 5.30 to 6.30

Prompt: Please do the same for `COc1cc(F)cc(C[C@H](NC(=O)CCc2noc(-c3ccccc3)n2)B(O)O)c1` as well.
Response: > 7.30

Prompt: Please do the same for `CCOc1cccc(C[C@H](NC(=O)CCn2cnc3ccccc32)B(O)O)c1` as well.
Response: > 7.30

Prompt: Please do the same for `CCc1cccc(C[C@H](NC(=O)CCC(=O)c2ccc(OC)cc2OC)B(O)O)c1` as well.
Response: 6.30 to 7.30

----------
- Tgt: UniProt:P28062
- Measurement Notes: Determination of LMP7 activity (fluorescence intensity assay, Suc-LLVY-AMC)
- Assay type: biochemical
- Condition Notes: purified human immuno proteasome 0.5 nM, 40 μM Suc-LLVY-AMC, 37° C.
Measured Quantity: IC50

Completed entries (count: 3):
O=C(CCc1cn(-c2ccccc2)nn1)N[C@@H](Cc1ccsc1)B(O)O; < 50 nM
O=C(N[C@@H](Cc1ccsc1)B(O)O)[C@H]1CCC[C@@H]1C(=O)c1ccccc1 (racemic); 500 to 5000 nM
CCc1cccc(C[C@H](NC(=O)CCC(=O)c2ccc(OC)cc2)B(O)O)c1; 50 to 500 nM

Prompt: State the recorded IC50 for this entry: `CCc1cccc(C[C@H](NC(=O)CCC(=O)c2ccc(-c3ccccc3)cc2)B(O)O)c1`
Response: 50 to 500 nM

Prompt: Please do the same for `O=C(CCC(=O)c1cccc(-c2ccccc2)c1)N[C@@H](Cc1ccsc1)B(O)O` as well.
Response: 50 to 500 nM

Prompt: Please do the same for O=C(CC(C(=O)N[C@@H](Cc1ccsc1)B(O)O)c1cccc(Cl)c1)c1ccccc1 (mixture of isomers) as well.
Response: 50 to 500 nM

Prompt: Please do the same for `COc1ccccc1CCC(=O)N[C@@H](Cc1coc2ccccc12)B(O)O` as well.
Response: < 50 nM

Prompt: Please do the same for `CC(=O)N[C@@H](Cc1ccc2ccccc2c1)B(O)O` as well.
Response: 50 to 500 nM

----------
Please consider the recorded IC50 for Beta5 (purified human constitutive proteasome) (Homo sapiens, UniProt P28074) in what follows.
Counter-ions that a name gives are not always drawn.

Completed entries (count: 6):
O=C(CCn1cnc2ccccc21)N[C@@H](Cc1csc2ccccc12)B(O)O [Example 106]; < 50 nM
O=C(CC(C(=O)N[C@@H](Cc1ccsc1)B(O)O)c1ccc(Cl)cc1)c1ccccc1 (mixture of isomers) [Example 4]; 500 to 5000 nM
O=C(CC(C(=O)N[C@@H](Cc1ccsc1)B(O)O)c1cccc(Cl)c1)c1ccccc1 (mixture of isomers) [Example 3]; > 5000 nM
Cn1ncc2cc(C[C@H](NC(=O)CCn3cc(-c4ccccc4)nn3)B(O)O)ccc21 [Example 103]; < 50 nM
COc1ccc(C(=O)C[C@@H](Cc2ccccc2)C(=O)N[C@@H](Cc2ccc(OC)c(C(F)(F)F)c2)B(O)O)cc1 [Example 45]; 500 to 5000 nM
O=C(CCn1c(=O)sc2ccccc21)N[C@@H](Cc1ccc2ccccc2c1)B(O)O [Example 96]; < 50 nM

Prompt: State the recorded IC50 for this entry: COc1ccc(C(=O)CCC(=O)N[C@@H](Cc2ccsc2)B(O)O)cc1 [Example 9]
Response: 500 to 5000 nM

Prompt: Please do the same for COc1ccccc1C(=O)CCC(=O)N[C@@H](Cc1ccsc1)B(O)O [Example 12] as well.
Response: > 5000 nM

Prompt: Please do the same for COc1ccc(C(=O)C[C@@H](Cc2ccccc2)C(=O)N[C@@H](Cc2ccsc2)B(O)O)cc1 (single isomer, unassigned) [Example 25] as well.
Response: > 5000 nM

Prompt: Please do the same for CCOc1cccc(C[C@H](NC(=O)CCn2cnc3ccccc32)B(O)O)c1 [Example 67] as well.
Response: 50 to 500 nM

Prompt: Please do the same for O=C(CCn1cc(-c2ccccc2)nn1)N[C@@H](Cc1ccc(F)c(C(F)(F)F)c1)B(O)O [Example 71] as well.
Response: 50 to 500 nM

Prompt: Please do the same for O=C(CCn1cnc2ccccc21)N[C@@H](Cc1ccsc1)B(O)O [Example 33] as well.
Response: 50 to 500 nM

Prompt: Please do the same for O=C(CCn1c(=O)sc2ccccc21)N[C@@H](Cc1c[nH]c2ccccc12)B(O)O [Example 101] as well.
Response: < 50 nM

Prompt: Please do the same for O=C(CCn1c(=O)sc2ccccc21)N[C@@H](Cc1csc2ccccc12)B(O)O [Example 105] as well.
Response: < 50 nM

Prompt: Please do the same for O=C(Cc1cnc[nH]1)N[C@@H](Cc1coc2ccccc12)B(O)O [Example 83, hydrochloride] as well.
Response: 50 to 500 nM

Prompt: Please do the same for CCc1cccc(C[C@H](NC(=O)CCn2cc(-c3ccccc3OC)nn2)B(O)O)c1 [Example 73] as well.
Response: 50 to 500 nM
